Below, each entry is listed alongside its reported MIC.
System: Peptococcus asaccharolyticus 1302
Test protocol: MIC, agar-dilution method
Type: cell-based
Settings: Peptoniphilus asaccharolyticus
Bridge positions count the residues as written; N and C are the ends. Square brackets hold non-standard residues; d marks the D form. Peptide text beside a SMILES is read from it. * marks the point of attachment. ξ: configuration not given here. Octatrienoyl(2E,4E,6E) = C/C=C/C=C/C=C/C(=O)*; Hexadienoyl(2E,4E) = C/C=C/C=C/C(=O)*; ξPro(4ξ-Me) = CC1CNC(C(=O)O)C1; X2 = CCC/C=C/C=C/C(=O)*; NMeA = CN[CH](C)C(=O)O; X1 = O=C(/C=C/C=C/CO)*

# Molecule, Unit tag, Modifier, MIC
rows = [
    ("C/C=C/C=C/C(=O)NC(Cc1ccccc1)C(=O)NC1COC(=O)C2CCCN2C(=O)C(C)NC(=O)C(C)N(C)C(=O)C2CCCN2C1=O (stereo not shown) [Factor E] ({Hexadienoyl(2E,4E)}-FSP[NMeA]AP; ester 2-C; configuration not given here)", "µg/mL", "=", 64),
    ("C/C=C/C=C/C=C/C(=O)NC(Cc1ccccc1)C(=O)NC1COC(=O)C2CCCN2C(=O)C(C)NC(=O)C(C)N(C)C(=O)C2CC(C)CN2C1=O (stereo not shown) [Factor A] ({Octatrienoyl(2E,4E,6E)}-FS[ξPro(4ξ-Me)][NMeA]AP; ester 2-C; configuration not given here)", "µg/mL", ">", 128),
    ("CC1CC2C(=O)N(C)C(C)C(=O)NC(C)C(=O)N3CCCC3C(=O)OCC(NC(=O)C(Cc3ccccc3)NC(=O)/C=C/C=C/CO)C(=O)N2C1 (stereo not shown) [Factor H] (X1-FS[ξPro(4ξ-Me)][NMeA]AP; ester 2-C; configuration not given here)", "µg/mL", ">", 128),
    ("CCC/C=C/C=C/C(=O)NC(Cc1ccccc1)C(=O)NC1COC(=O)C2CCCN2C(=O)C(C)NC(=O)C(C)N(C)C(=O)C2CC(C)CN2C1=O (stereo not shown) [Factor D] (X2-FS[ξPro(4ξ-Me)][NMeA]AP; ester 2-C; configuration not given here)", "µg/mL", "=", 128),
]
